Target: DBP (Homo sapiens, UniProt Q10586)
Construct: made in house
Sequence (Q10586 255-318 limits assumed): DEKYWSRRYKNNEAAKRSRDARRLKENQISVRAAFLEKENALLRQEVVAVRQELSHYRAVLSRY
Assay: Direct-binding FRET assay
Details: 4°C; N-terminal rhodamine design; mean or single; read-out: Kd
pKd: −log10 of the molar value. Where no end group is shown, it is not given here.
property.name: pKd

- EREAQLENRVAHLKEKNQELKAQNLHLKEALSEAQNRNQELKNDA [XBP1-d1]: < 6.00
- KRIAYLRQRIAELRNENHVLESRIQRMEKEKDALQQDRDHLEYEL [ATF5-d1]: < 5.30
- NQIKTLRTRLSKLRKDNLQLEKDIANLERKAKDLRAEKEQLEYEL [ATF4-d1]: < 6.00

====

Listed here: items and their measured pKd.
Target: MAFG (Homo sapiens, UniProt O15525)
Sequence (O15525 51-114 limits assumed): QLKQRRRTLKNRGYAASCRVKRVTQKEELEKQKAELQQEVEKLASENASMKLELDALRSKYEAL
Test: Direct-binding FRET assay
Parameters: made in house
Settings: 4°C; C-terminal rhodamine design; mean or single; read-out: Kd
pKd: −log10 of the molar value. Where no end group is shown, it is not given here.
property.name: pKd

• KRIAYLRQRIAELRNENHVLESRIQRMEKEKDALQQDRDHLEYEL [ATF5-d1] = < 5.30
• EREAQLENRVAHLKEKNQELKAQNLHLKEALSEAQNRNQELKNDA [XBP1-d1] = < 6.00

====

Biological target: NFE2L2 (Homo sapiens, UniProt Q16236)
Construct: made in house
Sequence (Q16236 497-560 limits assumed): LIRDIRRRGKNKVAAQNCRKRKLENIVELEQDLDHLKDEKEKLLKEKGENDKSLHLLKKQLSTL
Assay: Direct-binding FRET assay
Settings: 23°C; N-terminal rhodamine design; mean or single; read-out: Kd
Where no end group is shown, it is not given here.
property.name: Kd

* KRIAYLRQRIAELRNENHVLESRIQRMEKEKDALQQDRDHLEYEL [ATF5-d1] | > 1000 nM
* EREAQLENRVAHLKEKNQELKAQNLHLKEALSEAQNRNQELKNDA [XBP1-d1] | > 1000 nM
* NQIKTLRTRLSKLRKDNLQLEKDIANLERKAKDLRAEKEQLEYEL [ATF4-d1] | > 1000 nM

====

Target: ATF2 (Homo sapiens, UniProt P15336)
Construct: made in house
Sequence (P15336 352-415 limits assumed): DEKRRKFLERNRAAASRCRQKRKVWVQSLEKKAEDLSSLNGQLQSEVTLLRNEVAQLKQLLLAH
Test: Direct-binding FRET assay
Conditions: 23°C; C-terminal fluorescein design as donor, TAMRA target titrated; read-out: Kd
Procedure: The direct binding assay was performed manually in 384-well plates and is similar to a previously described assay. Wells were filled with 20 μL of 1 mM TCEP-HCl. […] Briefly, the Kd of the designed peptide homodimer was experimentally determined and used with previously determined target homodimer Kd values to determine the heterodimer Kd. […] A minimum 15% change in the donor fluorescence upon titrating the acceptor peptide from 0 to 1000 nM was required for a fit to be attempted. […]
Where no end group is shown, it is not given here.
Below, each of the sequences is paired with its reported Kd value.
property.name: Kd

* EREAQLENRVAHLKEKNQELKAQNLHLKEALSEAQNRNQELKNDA [XBP1-d1] | > 1000 nM
* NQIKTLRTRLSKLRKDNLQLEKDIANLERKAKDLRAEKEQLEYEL [ATF4-d1] | > 1000 nM

====

Molecular target: NFE2L2 (Homo sapiens, UniProt Q16236)
Construct: made in house
Assay: Direct-binding FRET assay
Settings: 23°C; C-terminal fluorescein design as donor, TAMRA target titrated; read-out: Kd
pKd: −log10 of the molar value. Where no end group is shown, it is not given here.
property.name: pKd

* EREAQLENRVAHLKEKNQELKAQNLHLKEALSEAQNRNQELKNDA [XBP1-d1] | < 6.00
* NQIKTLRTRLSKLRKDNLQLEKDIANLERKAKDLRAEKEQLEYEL [ATF4-d1] | < 6.00
